Origin of the recorded values: PubChem BioAssay (Tox21)

# System: Estrogen receptor (Homo sapiens)
# Experiment: qHTS assay to identify small molecule antagonists of the estrogen receptor alpha (ER-alpha) signaling pathway (AID 743069)
# Condition info: HEK293 ER-alpha-UAS-bla, beta-lactamase ratio, antagonist mode; series mostly up to 69.4 µM
Active and inactive are the calls of the source. Calls come from the whole dose curve; as a rule, active = well fitted curve in the direction sought with a large enough effect in the signal ratio in the repeat runs (not every such curve was filed as active); inconclusive = weak or mixed curves, or effect the other way; inactive = no such curve, though single readings can be large or run the other way; the % refers to the signal ratio.
Respond only with the outcome that fits, drawn from active, inactive

In [3]: df
Out[3]:
                            given_smiles  group_label
0  CCc1cc(Cc2cc(CC)c(N)c(CC)c2)cc(CC)c1N       active
1                 Clc1ccc2cc3ccccc3cc2c1     inactive

Now look at this one.
(Q) Short answer needed: outcome of this test for CCCCCCCCCCCCCCCS(=O)(=O)Oc1ccccc1 ?
(A) inactive
